Where do the numbers come from? From ChEMBL document CHEMBL1201862.

# System: RPMI-8226
# assay-text: NCI tumour cell line growth inhibition, 48 h
Calls of active or inactive are those of the source. Rule as the data show it: active = GI50 up to about 1.1 µM and inactive = higher.
Can you answer with just one of these options? y (active), n (inactive)

Recorded results for 6 compounds are shown here.
| compound | target-of-assay | cat |
| --- | --- | --- |
| Fc1cc(-c2cc(-c3ccccc3)n[nH]2)c(Cl)cc1Cl | RPMI-8226 | n |
| CC[C@@H]1CC[C@@H]2[C@H](CC[C@]3(C)[C@@H](OC(C)=O)CC[C@@H]23)[C@H]1C(=O)OC | RPMI-8226 | n |
| O=C(CCC(=O)C(C(=O)c1ccccc1)c1ccccc1)Nc1cccc(C(F)(F)F)c1 (stereo not drawn) | RPMI-8226 | n |
| [O-][n+]1c2cc(CN3CCOCC3)c(CN3CCOCC3)cc2[n+]([O-])c2c(O)cccc21 | RPMI-8226 | n |
| CCC(C)CCOC(=O)c1ccc(/N=C\c2ccc(/C=N/c3ccc(C(=O)OCCC(C)CC)cc3)cc2)cc1 (stereo not drawn) | RPMI-8226 | n |
| CCN(CC)CCNC(=O)c1ccccc1Nc1c(Cl)cccc1Cl | RPMI-8226 | n |

Query :: For `COc1ccc2c(C(=O)O)cc3ccccc3c2c1OC` , which call appears in the assay record?
Result :: n

Query :: Also `COc1ccc(/C=c2\c(=O)[nH]c3nc4ccccc4c(=O)n23)cc1` , if possible.
Result :: n

Query :: Same for CCOC(=O)NC(Nc1ccc(F)cc1)(C(=O)OCC)C(F)(F)F (stereo not drawn)
Result :: n

Query :: Another: `C/C(=N\N=C(/S)N1CC2CCC(CC2)C1)c1cccc[n+]1[O-]`
Result :: y

Query :: How about `NCc1ccc(O)c(O)c1O` ?
Result :: n

Query :: Follow-up entry: `CCCN(CCC)c1c([N+](=O)[O-])cc(C(N)=O)cc1[N+](=O)[O-]`
Result :: n

Query :: One more compound: `COc1cc(O)c2c(c1)C(=O)C=C(Cl)C2=O`
Result :: n

Query :: Proceed to CC(=O)NCCC1CN(C(=O)/C=C\I)c2ccccc21 (stereo not drawn)
Result :: n

Query :: How about COc1cc(-c2[o+]c3cc(O)cc(OC4OC(CO)C(O)C(O)C4O)c3cc2OC2OC(CO)C(O)C(O)C2O)cc(OC)c1O (stereo not drawn) ?
Result :: n

Query :: Next record, please: C[N+]12CCCCC1C(CN1C(=O)Cc3c4ccccc4c(c4ccccc34)CC1=O)CCC2 (stereo not drawn)
Result :: n

###

# Tested on: MCF7
# assay-text: NCI tumour cell line growth inhibition, 48 h
The source made the active and inactive calls. Cut-off read from the data, not from the text of the source: active = GI50 up to about 1.1 µM and inactive = higher.
measured-endpoint: GI50

Recorded results for 2 compounds are shown here.
| compound | GI50 |
| --- | --- |
| CC(C1CCCC1=O)C1CCCC1=O (stereo not drawn) | > 100 µM (inactive) |
| COc1ccc(N2C(=O)C3c4[nH]c5ccccc5c4C4CCC(c5ccccc5)CC4C3C2=O)cc1 (stereo not drawn) | 39 µM (inactive) |

Query :: Which GI50 value is on record for `CN(CCCNC(=O)c1cn(C)c2c1Cc1ccccc1-2)CCCNC(=O)c1cn(C)c2c1Cc1ccccc1-2` ?
Result :: 10.2 µM (inactive)

###

Reported values of GI50 for individual entries
# Test system: U-251
# assay-text: NCI tumour cell line growth inhibition, 48 h
Calls of active or inactive are those of the source. Cut-off read from the data, not from the text of the source: active = GI50 up to about 1.1 µM and inactive = higher.

Query :: GI50 lookup needed for CC1CCc2c(c(CC3CC(=O)NC(=O)C3)nn2-c2ccccc2)C1 (stereo unspecified) , thanks.
Result :: > 100 µM (inactive)

###

# Tested on: HOP-18
# assay-text: NCI tumour cell line growth inhibition, 48 h
The source made the active and inactive calls. No stated cut-off is given here; in the data, active = GI50 up to about 1.1 µM and inactive = higher.
Outcome (select one): Yes (active), No (inactive)

| compound | cat |
| --- | --- |
| N#CC(C(=N/O)/C(=N/O)C(C#N)c1ccc(Cl)cc1)c1ccc(Cl)cc1 (stereo not given) | No |
| C/C(CCN(C)C)=N/O | Yes |
| COc1cc(O)c2c(c1)C(=O)C=C(Cl)C2=O | No |
| Cc1ccccc1NC(=O)C(=O)c1c(O)c2ccc(O)cc2oc1=O | No |
| O=c1cccccc1NCCCCNc1cccccc1=O | No |

Query :: Given `O=C(CCc1nnc2s/c(=C\c3ccccc3[N+](=O)[O-])c(=O)n12)Nc1cc(Cl)c(Cl)cc1Cl` , state the outcome it received in this test.
Result :: No

Query :: # iterate: `C=C(C(=O)C(=O)Oc1ccc(Cl)cc1)C(=O)c1ccc(C)cc1`
Result :: No

Query :: Param item: `Nc1ccccc1S(=O)(=O)N(CC(=O)O)c1ccccc1`
Result :: No

Query :: Do the same for `C/C(=C1/N=C(c2cc([N+](=O)[O-])ccc2Cl)N(c2ccc(Br)cc2)C1=O)c1cc2ccccc2oc1=O` please
Result :: No

Query :: Further, for `COCOCc1cc(OCc2ccccc2)c(OC)cc1Br` ?
Result :: No

###

# Test system: CAKI-1
# assay-text: NCI tumour cell line growth inhibition, 48 h
The source made the active and inactive calls. Rule as the data show it: active = GI50 up to about 1.1 µM and inactive = higher.
API: response.call in active, inactive

Field: example entries. Status: answers known.
| compound | cat |
| --- | --- |
| O=C(/C=C/c1cccc([N+](=O)[O-])c1)c1cccnc1 | inactive |
| CC/C(Cl)=N\OC(=O)Nc1ccc(F)c([N+](=O)[O-])c1 | inactive |
| CC1C(=O)CCC1C(Sc1ccccc1)(Sc1ccccc1)Sc1ccccc1 (configuration not stated) | inactive |
| Cc1ccc(/C(O)=C/c2nc3ccccc3oc2=O)cc1 | inactive |
| O=c1[nH]c2c(c3ccccc13)CCc1ccccc1-2 | inactive |

Query :: Hi team, can someone confirm the assay call for `COC[C@@H](/N=C/N1CCc2cc(OC)c(OC)cc2[C@@H]1C)C(C)(C)C` ?
Result :: inactive

###

# Test system: MCF7
# assay-text: NCI tumour cell line growth inhibition, 48 h
Active and inactive are the calls of the source. Rule as the data show it: active = GI50 up to about 1.1 µM and inactive = higher.
Your reply should match one of these outcome classes. 1 (active), 0 (inactive)

Query :: Test call, this compound: Cc1ccc(S(N)(C(=O)Nc2cccc3ccccc23)[N+](=O)[O-])cc1 (configuration not stated)
Result :: 0

Query :: Same lookup for CCOC(=O)CNC(=O)C(CSC(=O)N(O)c1ccc(Br)cc1)NC(=O)CCC(N)C(=O)OCC (configuration not stated) , please.
Result :: 0

Query :: Let us now turn to `Cc1cccc2c1C/C(=C\c1cccc(C)c1C(=O)O)C2=O`
Result :: 0

Query :: How about `NCc1ccc(O)c(O)c1O` ?
Result :: 0

Query :: Follow-up item: `O=C(Cc1ccc(OCc2cccc(Cl)c2)cc1)NO`
Result :: 0

###

# Test system: OVCAR-8
# assay-text: NCI tumour cell line growth inhibition, 48 h
The source made the active and inactive calls. No stated cut-off is given here; in the data, active = GI50 up to about 1.1 µM and inactive = higher.
Reported GI50 values for a set of compounds

Observe how each entry below is paired with its result.
| compound | GI50 |
| --- | --- |
| CC(=O)NNc1nc(C)c(C(=O)/C=C/c2ccc(Cl)cc2)s1 | > 100 µM (inactive) |
| Cc1nc(-c2cc3ccccc3oc2=O)cs1 | 47 µM (inactive) |
| Cc1ccccc1NC(=O)C(=O)c1c(O)c2ccc(O)cc2oc1=O | > 100 µM (inactive) |

Query :: GI50 lookup needed for `Cc1oc2c(c1C)S(=O)(=O)C(C#N)=C(N(C)C)N2` , thanks.
Result :: > 100 µM (inactive)

Query :: Then what about the compound NP(=O)(Oc1c2occc2cc2ccc(=O)oc12)N(CCCl)CCCl (stereo unspecified) ?
Result :: 73.6 µM (inactive)

Query :: Try this compound next: CCOC(=O)NC(Nc1ccc(F)cc1)(C(=O)OCC)C(F)(F)F (stereo unspecified)
Result :: 7.06 µM (inactive)

###

# System: NCI/ADR-RES
# assay-text: NCI tumour cell line growth inhibition, 48 h
Activity calls are given as the source filed them. No stated cut-off is given here; in the data, active = GI50 up to about 1.1 µM and inactive = higher.
measured-endpoint: GI50

Query :: Please tell me: GI50 of CCOC1SC(SC)=NN1C(=O)C(OC(C)=O)C(OC(C)=O)C(OC(C)=O)C(OC(C)=O)C(=O)N1N=C(SC)SC1OCC (configuration not stated) , system NCI/ADR-RES?
Result :: > 100 µM (inactive)

Query :: Next up: `O=C(O)c1ccc([N+](=O)[O-])c(P(=O)(O)O)c1`
Result :: > 100 µM (inactive)

Query :: Would you mind doing `Cc1cc(C)c2ccc(N3CCNCC3)nc2n1` as well?
Result :: > 100 µM (inactive)

Query :: Cool, now O=C1CC(C(O)C(O)C(O)CO)CC(=O)N1 (configuration not stated)
Result :: > 100 µM (inactive)

###

# Test system: HCT-116
# assay-text: NCI tumour cell line growth inhibition, 48 h
The source made the active and inactive calls. Rule as the data show it: active = GI50 up to about 1.1 µM and inactive = higher.
measured-endpoint: GI50

Guide cases for GI50, answers given:
| compound | measured-endpoint | value |
| --- | --- | --- |
| COC1=CC(=O)C2C(C1=O)[C@@H]1c3ccccc3OC[C@H]21 (some centres not stated) | GI50 | > 100 µM (inactive) |
| CN(C)CCNC(=O)c1cccc2ccc(-c3ccc(-c4ccccc4)cc3)nc12 | GI50 | 1.72 µM (inactive) |
| CCOC(=O)N1C(=O)C2C3C=CC(C2C1=O)C1C2C(=O)N(C(=O)OCC)C(=O)C2C31 (configuration not stated) | GI50 | > 39.5 µM (inactive) |
| O=C(c1cccs1)N(C(=O)N1CCC(c2ccccc2)CC1)c1ccccc1 | GI50 | 42.5 µM (inactive) |
| CC(=O)/C=C/c1ccc(C2CC(C)=Nc3c(ccc4c3C(=O)c3ccccc3C4=O)N2)cc1 (configuration not stated) | GI50 | 33 µM (inactive) |

Query :: # lookup: GI50 of CC(=O)Nc1ccc(OCC(O)CO)cc1 (configuration not stated)
Result :: > 100 µM (inactive)

Query :: Moving on to `CCOC(=O)NC(=O)c1cn(CCCO)c(=O)[nH]c1=O`
Result :: > 100 µM (inactive)

Query :: Then `O=C(O)c1cc2sc(C(=O)O)cc2s1` ?
Result :: > 100 µM (inactive)

Query :: Input `CN/N=C(\C)CC(=O)Nc1cccc(Cl)c1C`
Result :: > 100 µM (inactive)

Query :: Would you mind doing `O=c1c2cc(Br)cc(Br)c2[nH]c(=S)n1-c1ccccc1` as well?
Result :: 48.8 µM (inactive)

Query :: # repeat for c1c[nH]c(C23C4C5C6C4C2C6C53)n1 (configuration not stated)
Result :: > 100 µM (inactive)

Query :: Repeat with NC1(C(=O)O)CCCC1 [CYCLOLEUCINE]
Result :: > 625 µM (inactive)

Query :: Now give it for `c1ccc(/N=C2\SC3=NCCN3\C2=N/c2ccccc2)cc1` too.
Result :: 13.6 µM (inactive)

Query :: Please answer likewise for O=C(CC12C3C4C1C1C2C3C41CC(=O)NO)NO (configuration not stated)
Result :: 42.4 µM (inactive)

Query :: Queued: `O=C1N/C(=N/N=C/c2c[nH]c3ccccc23)N/C1=C\c1c[nH]c2ccccc12`
Result :: 19.1 µM (inactive)

Query :: For CC(=O)C1(O)CCC2(O)C3(O)CC=C4CC(O)CCC4(C)C3CC(OC(=O)c3ccc(O)cc3)C12C.COC1CC(OC2C(C)OC(OC3C(C)OC(OC4CCC5(C)C(=CCC6(O)C5CC(OC(=O)c5ccc(O)cc5)C5(C)C(O)(C(C)=O)CCC65O)C4)CC3OC)CC2OC)OC(C)C1O (configuration not stated) then?
Result :: 10 µM (inactive)
